meta.source: patent EP4806435A1

# PROTOCOL SUMMARY: Phase 1 clinical trial: plasma pharmacokinetics
# Assay type: in vivo, human
# CONDITION INFO: human, plasma, oral, 180 mg, Cycle 2 Day 1; 180 mg, QD; N=1; cut-off April 2023; read-out: AUC0-24 (median)
# Method: Summary statistics based on preliminary data were obtained for the pharmacokinetics of Compound 1 in patients receiving once-daily doses ranging from 20 mg to 240 mg (Table 5). The mean plasma concentration-time curves of Compound 1 in the once-daily dose groups ranging from 20 mg to 240 mg are shown in Figure 11. In this study, one cycle consists of 28 days, and Cycle 1 Day 1 refers to Day 1 of the first cycle. […] Accumulation was observed after repeated administration. […]
MEASUREMENT LABEL: AUC(0-t)

# AUC(0-t) lookup, item CC1(C)Oc2cc(Cl)ccc2[C@@H]2OCC3(CCN(CCn4ccnc4)CC3)C[C@H]21 7260 ng·h/mL
